test summary: Acute toxicity in ip dosed ICR mouse assessed as maximum tolerated dose measured over 14 days
Type: organism-based
measurement context: in vivo, time 14 day
reported metric: MTD at 336 h (mg/kg)
Kindly answer with a numeric value in mg/kg, unit omitted.

Entry "Br.Cc1c2c(cc[n+]1Cc1ccccc1)c1ccc(OCC(=O)OCCCCOc3no[n+]([O-])c3S(=O)(=O)c3ccccc3)cc1n2CCCc1ccccc1" has what MTD at 336 h? 100

---

Tested on: BGC-823
test summary: Antiproliferative activity against human BGC-823 cells assessed as reduction in cell viability incubated for 72 hrs by CCK-8 assay
Type: functional, cell-based
measurement context: BGC-823, 72 h
pIC50: −log10 of the molar value.
Kindly return met if reported pIC50 is no lower than 5; return not met if it is lower.

>>> class_label("COc1ccc2c(c1)[nH]c1c(C)nccc12")
"not met"
>>> class_label("O=S(=O)(c1ccccc1)c1c(OCCCCO)no[n+]1[O-]")
"met"
>>> class_label("COc1cccc2c1C(=O)c1c(O)c3c(c(O)c1C2=O)C[C@@](O)(C(=O)CO)C[C@@H]3O[C@H]1C[C@H](N)[C@H](O)[C@H](C)O1")
"met"

Please tell me: is the compound "Cc1c2c(cc[n+]1Cc1ccccc1)c1ccc(OCC(=O)O)cc1n2CCCc1ccccc1" at or over 5 in terms of pIC50? not met

---

Tested on: MCF7
test summary: Antiproliferative activity against human MCF7 cells assessed as reduction in cell viability incubated for 72 hrs by CCK-8 assay
Format: functional, cell-based
measurement context: MCF7, 72 h
reported metric: log10(IC50) (log10 of the value in µM)
Friendly reminder: values = log10 of IC50, unit µM.

>>> value("Br.Cc1c2c(cc[n+]1Cc1ccccc1)c1ccc(OCC(=O)OCCCCOc3no[n+]([O-])c3S(=O)(=O)c3ccccc3)cc1n2CCCc1ccccc1")
0.45

For the compound "O=S(=O)(c1ccccc1)c1c(OCCCO)no[n+]1[O-]" , what log10(IC50) is on record? 0.87

Now the same for "Cc1c2c(cc[n+]1Cc1ccccc1)c1ccc(OCC(=O)O)cc1n2CCCc1ccccc1" 1.42

What about "COc1cccc2c1C(=O)c1c(O)c3c(c(O)c1C2=O)C[C@@](O)(C(=O)CO)C[C@@H]3O[C@H]1C[C@H](N)[C@H](O)[C@H](C)O1" ? -0.42

One more compound: "COc1ccc2c(c1)[nH]c1c(C)nccc12" 1.18

What about "O=S(=O)(c1ccccc1)c1c(OCCCCO)no[n+]1[O-]" ? 0.69
